# systemTested: mTOR (Homo sapiens, UniProt P42345)
# Construct: FLAG; made in house
# Sequence (P42345 1362-2549): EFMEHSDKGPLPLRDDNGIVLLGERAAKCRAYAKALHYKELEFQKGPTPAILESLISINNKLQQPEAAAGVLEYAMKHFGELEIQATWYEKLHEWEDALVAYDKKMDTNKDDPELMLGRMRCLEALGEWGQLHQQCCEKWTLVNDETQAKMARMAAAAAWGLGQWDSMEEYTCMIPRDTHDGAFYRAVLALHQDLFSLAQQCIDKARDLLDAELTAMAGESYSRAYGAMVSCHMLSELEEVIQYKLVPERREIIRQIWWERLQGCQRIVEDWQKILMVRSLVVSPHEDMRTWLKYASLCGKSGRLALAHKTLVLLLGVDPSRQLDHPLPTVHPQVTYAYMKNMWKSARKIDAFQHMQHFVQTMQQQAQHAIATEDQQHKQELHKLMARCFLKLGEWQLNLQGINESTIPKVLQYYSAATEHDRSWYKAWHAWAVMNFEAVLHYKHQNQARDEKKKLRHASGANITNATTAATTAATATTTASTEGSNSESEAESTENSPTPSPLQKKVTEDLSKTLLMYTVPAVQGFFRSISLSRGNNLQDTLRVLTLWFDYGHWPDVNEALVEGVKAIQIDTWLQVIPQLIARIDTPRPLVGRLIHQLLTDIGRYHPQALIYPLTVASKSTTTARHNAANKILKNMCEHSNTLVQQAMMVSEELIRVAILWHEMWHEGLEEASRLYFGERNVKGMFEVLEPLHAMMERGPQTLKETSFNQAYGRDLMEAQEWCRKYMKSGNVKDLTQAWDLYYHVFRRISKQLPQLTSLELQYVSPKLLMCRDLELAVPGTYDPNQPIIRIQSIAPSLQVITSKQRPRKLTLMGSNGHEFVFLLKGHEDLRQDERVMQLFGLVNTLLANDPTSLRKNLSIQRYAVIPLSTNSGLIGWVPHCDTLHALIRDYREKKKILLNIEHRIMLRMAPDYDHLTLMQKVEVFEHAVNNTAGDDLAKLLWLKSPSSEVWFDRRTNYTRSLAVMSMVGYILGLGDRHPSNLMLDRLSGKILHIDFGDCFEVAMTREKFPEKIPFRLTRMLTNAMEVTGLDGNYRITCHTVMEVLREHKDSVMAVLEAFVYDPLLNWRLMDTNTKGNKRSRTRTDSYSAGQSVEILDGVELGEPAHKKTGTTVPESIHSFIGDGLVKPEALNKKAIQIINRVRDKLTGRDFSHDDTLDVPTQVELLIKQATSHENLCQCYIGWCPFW
# measurementDescription: In Vitro mTOR Kinase Assay (Echo), Test (a)(ii)
# Type: biochemical
# testParameters: table of enzyme assay Test (a)(ii); read-out: Test (a)(ii) IC50
metricName: pIC50
Scale note: pIC50 = -log10(concentration in M).

| compound | pIC50 |
| --- | --- |
| C[C@H]1COC[C@H](C)N1c1cc(C2(S(C)(=O)=O)CC2)nc(-c2ccc(NC(=O)NCCO)cc2)n1 [Example 91d] | 8.45 |
| C[C@H]1COCCN1c1cc(C2(S(=O)(=O)c3ccccc3)CC2)nc(-c2ccc(NC(=O)NCC(=O)O)cc2)n1 [Example 36dp] | 7.97 |
| Cc1csc(S(=O)(=O)C2(c3cc(N4CCOC[C@@H]4C)nc(-c4ccc(NC(=O)NCCC#N)cc4)n3)CC2)n1 [Example 36o] | 8.45 |
| C[C@H]1COCCN1c1cc(C2(S(=O)(=O)c3cc(F)cc(F)c3)CC2)nc(-c2ccc(NC(=O)NC(C)(C)CO)cc2)n1 [Example 19k] | 8.38 |
| C[C@H]1COCCN1c1cc(C2(S(=O)(=O)c3ccccc3)CCC2)nc(-c2ccc(NC(=O)NCCF)cc2)n1 [Example 64s] | 8.53 |

IN: Which pIC50 is listed for C[C@H]1COCCN1c1cc(C2(S(=O)(=O)c3ccccn3)CC2)nc(-c2ccc(NC(=O)NCCCO)cc2)n1 [Example 28k] ?
OUT: 9.02

IN: Which pIC50 is listed for C[C@H]1COCCN1c1cc(C2(S(=O)(=O)CCCO)CC2)nc(-c2ccc(NC(=O)NCCF)cc2)n1 [Example 64aj] ?
OUT: 8.11
